Hi there, I'd appreciate the recorded fold difference in affinity in comparison to original for every entry that follows.
# Test Target: binding partner of C5A (XPA23)
# Assay Notes: Biacore, mutant vs original C5A (XPA23)
State the answer as a number, implicitly in fold.

What fold difference in affinity in comparison to original value was documented for this binder, C5A (XPA23) light chain variable region A91V (antibody, V domains shown) VH: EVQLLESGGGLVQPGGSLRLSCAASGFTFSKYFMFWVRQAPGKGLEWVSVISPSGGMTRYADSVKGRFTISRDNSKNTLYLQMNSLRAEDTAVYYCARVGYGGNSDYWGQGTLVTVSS VL: DIQMTQSPSSVSASVGDRLTIICRASQDINRWLAWYQQTPGNAPKLLIHSATSLQSGVPSRFSGSGSGTDFTLTINSLQPEDFATYYCQQVDSFPLTFGGGTKVEIK ?
0.51

What fold difference in affinity in comparison to original value was documented for this binder, C5A (XPA23) light chain variable region S93L (antibody, V domains shown) VH: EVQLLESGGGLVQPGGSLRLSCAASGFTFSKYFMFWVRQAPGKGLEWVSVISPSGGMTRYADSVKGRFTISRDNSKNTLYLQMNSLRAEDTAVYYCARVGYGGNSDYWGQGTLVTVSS VL: DIQMTQSPSSVSASVGDRLTIICRASQDINRWLAWYQQTPGNAPKLLIHSATSLQSGVPSRFSGSGSGTDFTLTINSLQPEDFATYYCQQADLFPLTFGGGTKVEIK ?
1.08

What fold difference in affinity in comparison to original value was documented for this binder, C5A (XPA23) light chain variable region S53P (antibody, V domains shown) VH: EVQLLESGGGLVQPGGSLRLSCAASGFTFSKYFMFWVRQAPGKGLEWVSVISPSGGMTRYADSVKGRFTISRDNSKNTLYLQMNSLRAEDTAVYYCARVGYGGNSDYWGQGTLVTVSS VL: DIQMTQSPSSVSASVGDRLTIICRASQDINRWLAWYQQTPGNAPKLLIHSATPLQSGVPSRFSGSGSGTDFTLTINSLQPEDFATYYCQQADSFPLTFGGGTKVEIK ?
4.92
